tested on: DU-145 prostate; assay: NCI-60 one-dose screen, 48 h (100 = growth as untreated, 0 = no growth, -100 = all killed); conditions: 10 µM unless noted
Compounds without any hit were thinned out: in the full panel of roughly 83,000, 20% have a hit.

{"smi": "COc1ccc(OC)c(Cn2cc(C#N)c(N)c2C(=O)c2ccc(Br)cc2)c1", "growth, %": 79.1}
{"smi": "Cc1ccc2nc(SCc3ccccc3F)n(-c3ccccc3)c(=O)c2c1", "growth, %": 108}
{"smi": "Cc1ccc(-c2cc(-c3ccccc3)[nH]c(=O)c2C#N)cc1", "growth, %": 97.3}
{"smi": "CS(=O)(=O)Nc1cccc(-n2cnc3cc(-c4ccc(O)cc4)ccc32)c1", "growth, %": 29.2}
{"smi": "Cc1ccc2c(c1)/C(=C/C(=O)c1cc3ccccc3oc1=O)C(=O)N2", "growth, %": 83.9}
